- Assay procedure: Plasma PK after single ocular administration in rabbits
- Assay type: in vivo
- Condition details: male, New Zealand White, topical or ocular, 400 ug; rabbit plasma; single ocular 400 μg (both eye); mean ± SD (% CV)

# Line notation, half-life, h
data = [
    ("OC[C@H]1O[C@@H](c2cc(Cc3ccc(C4CC4)cc3)c(Cl)c3c2CCO3)[C@H](O)[C@@H](O)[C@@H]1O", 3.6),
]

###

- Assay procedure: Plasma and retinal concentration after single oral administration in rabbits
- Type: in vivo, male New Zealand White rabbits
- Condition details: male, New Zealand White, 400 ug; rabbit plasma; single oral 400 μg; median [min, max]; n = 6
Measure: Tmax

# Line notation, Measure, Result
rows = [
    ("OC[C@H]1O[C@@H](c2cc(Cc3ccc(C4CC4)cc3)c(Cl)c3c2CCO3)[C@H](O)[C@@H](O)[C@@H]1O", "Tmax", "48 min"),
]
